- System: PC-14
- experiment.description: relative viability (nuclei count vs DMSO), 5 days (fraction); higher = more cells survive
- assay.context: first compound 500 µM
Lab note: cut-off is 0.2. Strictly less in relative viability is label 1. Exactly 0.2 or more is label 0.

is_below(relative viability, 0.2) for O=C(O)CCCCC(CCSCc1ccccc1)SCc1ccccc1 (stereo not given) [CPI-613] + O=C(CCCCCCC(=O)Nc1ccccc1)NO [Vorinostat] (partner 1 µM) ?
label 1

is_below(relative viability, 0.2) for O=C(O)CCCCC(CCSCc1ccccc1)SCc1ccccc1 (stereo not given) [CPI-613] + Nc1ncn([C@H]2C[C@H](O)[C@@H](CO)O2)c(=O)n1 [Decitabine] (partner 2 µM) ?
label 1
